Reference source for all entries: PubChem BioAssay (NCI)

test system: HCT-15 colon; experiment: NCI-60 one-dose screen, 48 h; settings: 10 µM unless noted
Compounds without any hit were thinned out: in the full panel of roughly 83,000, 20% have a hit. Active and inactive are the calls of the source. Rule for the calls: active = growth percent below 10; inactive = the rest.
Write down one outcome, taken from Yes for active, No for inactive

compound | category.label
Cc1ccc(S(=O)(=O)OCC#CCOS(=O)(=O)c2ccc(C)cc2)cc1 | No
CCN(CC)c1ccc(-c2cc(-c3cc(OC)c(OC)c(OC)c3)nc(N3CCC(O)CC3)c2C#N)cc1 | Yes
O=C(c1c[nH]c2ccccc12)c1n[nH]c(=S)n1-c1ccc([N+](=O)[O-])cc1 | No
COc1cc(/C=C2\C(=O)N(CCCOc3cc(O)c4c(=O)cc(-c5ccccc5)oc4c3)c3ccccc32)cc(OC)c1O | No
Cc1cccc(N2C(=O)/C(=C/C(Cl)=C/c3ccc([N+](=O)[O-])cc3)SC2=S)c1C | Yes
COC12C=C/C(=C(/C(=O)OCc3csc(SC)n3)C(=O)CCCCCCCCC3(OC)C=C/C(=C(/C(=O)OCc4cnc(SC)s4)C(=O)CCCCCCCC1)O3)O2 (stereo not drawn) | No
COc1ccc(/C=C(/C(=O)N2CCNCC2)c2cc(OC)c(OC)c(OC)c2)cc1O | No
O=c1cc(CP(=O)(O)O)c2cc(O)c(-c3ccccc3)cc2o1 | No

Attention now turns to another entry.
[ask] In this assay, the call recorded for CCOC(=O)/C(=C(/C)NCC(C)C)c1cc(O)c(O)c2c(C)cc(=O)[nH]c12 was what?
[reply] No

###

tested on: EKVX NSCLC; assay: NCI-60 one-dose screen, 48 h; settings: 10 µM unless noted
Compounds without any hit were thinned out: in the full panel of roughly 83,000, 20% have a hit. The source made the active and inactive calls. Rule for the calls: active = growth percent below 10; inactive = the rest.
# output must be one of True (active), False (inactive)

Worked set:
compound | category.label
COc1ccc2cc(C(=O)N3CCC([C@@H](C)C(=O)NCc4ccc5c(c4)OCO5)CC3)[nH]c2c1 | False
Cc1ccc(Cc2cnc(NC(=O)/C=C/c3ccc(C)o3)s2)cc1 | False
C=C(C)[C@@H]1CC[C@]2(C(=O)N3CCN(C)CC3)CC[C@]3(C)[C@H](CC[C@@H]4[C@@](C)(CCC(=O)O)[C@H](C(=C)C)CC[C@]43C)[C@@H]12 | False

[ask] Kindly provide the recorded test outcome for the following compound: COC(=O)c1c2c(c[n+]([O-])c1C)C(=O)C=C(NCc1ccccc1)C2=O
[reply] True

[ask] Answer briefly: the call reported for COC1/C=C/OC2(C)Oc3c(C)c(O)c4c(O)c(c(/C=N/N(c5ccccc5)c5ccccc5)c(O)c4c3C2=O)NC(=O)C(C)=C/C=C/C(C)C(O)C(C)C(O)C(C)C(OC(C)=O)C1C (stereo not drawn) in this assay.
[reply] False

[ask] What did this assay record as the result for O=C(C1=Cc2cc3ccccc3n2Cc2cnnn21)c1ccc(F)cc1 ?
[reply] False

[ask] Recorded test outcome, item CC(C)c1ccc2c(c1)CC[C@H]1[C@](C)(C(=O)OCC#CCN3CCCC3)CCC[C@]21C
[reply] False

[ask] Hi team, can someone confirm the assay call for CCOC(=O)c1ccc[nH]1 ?
[reply] False

###

test system: UACC-62 melanoma; assay: NCI-60 one-dose screen, 48 h (100 = growth as untreated, 0 = no growth, -100 = all killed); details: 10 µM unless noted
Compounds without any hit were thinned out: in the full panel of roughly 83,000, 20% have a hit.
Property: growth; scope: individual compounds
# unit: % | format: bare number

See these solved cases before continuing.
compound | tested.system | growth / %
O=C(OCc1ccc2c(Cl)cc(Cl)c(O)c2n1)N1CCN(C(=O)c2cc3ccccc3[nH]2)CC1 | UACC-62 melanoma | -2.56
COC(=O)c1ccc2cc(OC)c(OC)cc2c1 | UACC-62 melanoma | 104
ClCCn1cnc2c(SCc3ccccc3)ncnc21 | UACC-62 melanoma | 46.1
C=C1C(=O)O[C@H]2[C@H]1CC/C(COC(=O)C(=O)c1c[nH]c3ccc(Cl)cc13)=C\CC[C@@]1(C)O[C@@H]21 | UACC-62 melanoma | -81.8
O=C(/C=C/C12c3ccccc3C(c3ccccc31)C1C(=O)NC(=O)C12)c1ccc(I)cc1 (stereo not given) | UACC-62 melanoma | 51.9

[ask] Find growth for N#Cc1ccc(O)c(C2=NCC(c3ccc(-c4ccccc4)cc3)O2)c1 (stereo not given) on UACC-62 melanoma and write it down.
[reply] -5.35

[ask] Look up and report measured growth (UACC-62 melanoma) for the following compound: Brc1ccc(Nc2nc(Nc3cnc4ccccc4c3)c3[nH]cnc3n2)cc1
[reply] 66.8

[ask] Report value: growth, system: UACC-62 melanoma, compound: c1cc(OCCCCCOc2cccc(-c3nc4ccccc4[nH]3)c2)cc(-c2nc3ccccc3[nH]2)c1
[reply] 8.55

###

tested on: SNB-19 CNS; assay: NCI-60 one-dose screen, 48 h (100 = growth as untreated, 0 = no growth, -100 = all killed); settings: 10 µM unless noted
About 83,000 compounds went through this panel and 20% of them were active in at least one assay; those are over-represented in the sample as a whole. Active and inactive are the calls of the source. How the source made its calls: active means growth percent below 10; inactive means the rest.
metric: growth

molecule | result
Cc1nc2sc(C(=O)Nc3cccc(Cl)c3C)c(N)c2cc1C(=O)/C=C/c1ccccc1 | -41.8% (active)
C=C1C(=O)O[C@H]2[C@H]1CC/C(COC(=O)/C=C\C(=O)NCc1ccc(Cn3c(=O)sn(CCCCl)c3=O)cc1)=C\CC[C@@]1(C)O[C@@H]21 | 94.8% (inactive)
N#Cc1c(-c2ccccc2)nc2c(c(-c3ccc(Cl)cc3)nn2-c2ccccc2)c1-c1ccc([N+](=O)[O-])cc1 | 90.9% (inactive)

[ask] Supply measured growth of CC(C)Cc1nc(Nc2ccccc2)[nH]c(=O)c1C#N in your reply.
[reply] 54.8% (inactive)

[ask] Output measured growth for this item: Oc1nc(NCc2ccccc2)sc1/C=C1\C=Nc2ncccc21
[reply] 63.3% (inactive)

[ask] Give recorded growth. CN(C)CCC(=O)C1CC1
[reply] 96% (inactive)

[ask] Please supply the value of reported growth for the item C=CCn1cc(-c2nc3ccccc3s2)c2cc(-c3ccc4c5c(cccc35)C(=O)N(CCO)C4=O)ccc21
[reply] 93.1% (inactive)

###

// reported growth per item
tested on: OVCAR-8 ovarian; experiment: NCI-60 one-dose screen, 48 h (100 = growth as untreated, 0 = no growth, -100 = all killed); settings: 10 µM unless noted
Compounds without any hit were thinned out: in the full panel of roughly 83,000, 20% have a hit.
Supply the numeric figure in %, leaving out any unit text.

[ask] Annotate the molecule COc1c2c(cc3c1C(=O)N[C@@H]1[C@@H](O)[C@@H](O)[C@H](O)C[C@@H]31)OCCO2 with its measured growth.
[reply] 100

[ask] Could you please provide reported growth for CN1CC(c2ccc(Br)cc2)C(C(=O)c2ccc(Br)cc2)C12C(=O)Nc1ccccc12 (stereo not given) ? Thanks!
[reply] 83.8

[ask] Read off the recorded growth for O=C(O)c1cn(C2CC2)c2cc(N3CCN(C(=O)N4CCOCC4)CC3)c(F)cc2c1=O
[reply] 104

[ask] Give reported growth value for CCOC(=O)C/C(=N\Nc1cc(=O)[nH]c2ccc(C)cc12)C(=O)OCC
[reply] 101

[ask] Name the recorded growth of the molecule listed here: COc1ccc(Nc2ncc(C#N)c(NCCCNC(=O)C3CCC3)n2)cc1
[reply] 64

###

tested on: NCI-H322M lung; test: NCI-60 one-dose screen, 48 h; conditions: 10 µM unless noted
Compounds without any hit were thinned out: in the full panel of roughly 83,000, 20% have a hit. The source made the active and inactive calls. How the source made its calls: active means growth percent below 10; inactive means the rest.
Form entry, call: pick from T for active, F for inactive

Record excerpt, results attached:
compound | category.label
O=C(NNc1nc2cc(F)ccc2n2c(CN3CCOCC3)ccc12)c1ccccc1 | F
Cc1ccc(NC(=O)c2sc3nc(C)c(C(O)c4ccccc4)cc3c2N)cc1 (stereo not given) | F
COc1ccc(/C=C2\CN(C(=O)C(Cl)Cl)C/C(=C\c3ccc(OC)c(OC)c3)C2=O)cc1OC | F

[ask] What outcome does the record of this test show for CN(C)CCCn1c2c(c3ccncc3c1=O)C(=O)c1ccccc1-2 ?
[reply] F

[ask] Which outcome did this test record for the compound O=C(O)CC(C(=O)O)/C(=C\c1ccccc1)c1ccccc1 (stereo not given) ?
[reply] F

###

test system: SNB-75 CNS; test: NCI-60 one-dose screen, 48 h; conditions: 10 µM unless noted
This is part of a sample that, as a whole, favours compounds with a hit. Of some 83,000 tested, about 20% had one in any assay. Calls of active or inactive are those of the source. Rule for the calls: active = growth percent below 10; inactive = the rest.
Field 'call' accepts active, inactive

Below are worked cases with known answers.
molecule | tested.system | category.label
N[C@@H]1CCC[C@H]1NCCCCN1C(=O)c2cccc3cc([N+](=O)[O-])cc(c23)C1=O | SNB-75 CNS | inactive
Cn1cc(-c2nonc2-c2c[nH]c3ccccc23)c2cc(Br)ccc21 | SNB-75 CNS | inactive
Cc1c(C(C)(C)O)cn2ncnc(Oc3ccc(NC(=O)Nc4ccc(Cl)c(C(F)(F)F)c4)c(F)c3)c12 | SNB-75 CNS | inactive
Cc1cc(=O)n(C(=S)Nc2ccc(Cl)cc2)c2cc(O)ccc12 | SNB-75 CNS | inactive

[ask] Just curious, what result did C=C1C(=O)O[C@H]2[C@H]1CC/C(COC(=O)C(=O)c1c[nH]c3ccc(Cl)cc13)=C\CC[C@@]1(C)O[C@@H]21 get here?
[reply] active

[ask] Which outcome did this test record for the molecule Cc1nc2ccccc2c(/C=C/c2ccc(F)cc2)c1C(=O)/C=C/c1ccccc1 ?
[reply] inactive

[ask] How did this test come out for C(=C(\C1=NCCN1)n1ccc2ccccc21)/c1ccccc1 ?
[reply] inactive

[ask] # lookup: test call for N#Cc1ccc(/C=C/c2cn(-c3ccccc3)nc2-c2cccc([N+](=O)[O-])c2)cc1
[reply] inactive

[ask] What call does the record list for O=C(CN1C(=O)S/C(=C\C(Cl)=C\c2ccccc2)C1=O)NC1CCS(=O)(=O)C1 (centres undefined) ?
[reply] inactive
